The entries below are paired with their reported largest response in the series, negative = inhibition.
# assay target: 4'-phosphopantetheinyl transferase ffp (Bacillus subtilis) (UniProt Q9F4F7)
# measurement description: qHTS Assay for Inhibitors of Bacillus subtilis Sfp phosphopantetheinyl transferase (PPTase);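 note: the enzyme is Sfp with the accession as filed and its product quenches rhodamine fluorescence; 0% = enzyme reaction without inhibitor and -100% = no enzyme wells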
# stated conditions: Biochemical Sfp PPTase activity
The whole screen tested about 310,000 compounds, of which about 11,000 (3.5%) were called active. Not shown: some 4% with an inconclusive outcome. What follows is part of a selection rich in actives, with near analogues and random picks from the rest.
endpoint label: largest response in the series, negative = inhibition (%)

- molecule: "CC(C)(C)c1cc[n+](-c2[nH]c(=O)sc2/C=N/N=C(\\[O-])c2ccccc2)cc1"
  observed: -4.09
- molecule: "COc1ccc(N(Cc2cc3cc(OC)ccc3[nH]c2=O)S(C)(=O)=O)cc1"
  observed: -8.56
- molecule: "COc1cc(C(=O)NN(CCC#N)C2=NS(=O)(=O)c3ccccc32)cc(OC)c1OC"
  observed: 11.7
- molecule: "O=S(=O)(Nc1ccc2cn[nH]c2c1)c1ccccc1"
  observed: 14.6
- molecule: "Cc1ccccc1/C=C\\c1nc(O)c([N+](=O)[O-])c(=O)[nH]1"
  observed: 2.6
- molecule: "COc1ccccc1N1CCN(CC(=O)NC(=O)NCc2ccco2)CC1"
  observed: 7.58
- molecule: "COc1ccc(CNc2ncncc2-c2ccccc2C)c(OC)c1"
  observed: -23.8
- molecule: "CCOC(=O)c1c(NC(=O)CSc2nccc(=O)[nH]2)sc(C)c1C"
  observed: 2.75
- molecule: "Cc1ccc(NC(=S)NC(=O)/C=C/c2ccc(Cl)cc2)cc1"
  observed: -9.72
- molecule: "CCCCCCn1c(SCC(=O)c2ccccc2)nc2c1c(=O)[nH]c(=O)n2C"
  observed: -15.2
- molecule: "Cc1ccc(/C=N/NC(=O)c2cc3ccccc3cc2O)o1"
  observed: 13.6
- molecule: "CCOc1ccc2nc(SC(CC)C(=O)Nc3cc(C)on3)sc2c1 (stereo not given)"
  observed: 9.59
- molecule: "O=C(Nc1ccc(Cl)cc1)c1cccc(OC(=S)N2CCOCC2)c1"
  observed: 5.61
- molecule: "COC(=O)C(CC(=O)Nc1cc(C)ccc1C)Nc1ccccc1OC (stereo not given)"
  observed: 28.6
- molecule: "C#CCOc1ccc(/C=C2/C(=O)NN(c3ccccc3)C2=O)cc1OC"
  observed: 8.7
- molecule: "COc1cc(C2/C(=C(\\O)c3ccc4c(c3)CC(C)O4)C(=O)C(=O)N2c2nnc(C)s2)cc(OC)c1OC (stereo not given)"
  observed: -19.8
- molecule: "COc1cc(/C=C/C(=O)O)cc(S(=O)(=O)Nc2ccccc2C(=O)NCCc2ccccc2)c1OC"
  observed: 13.6
- molecule: "Cc1n[nH]c(=O)nc1N/N=C/c1cccs1"
  observed: 4.06
- molecule: "OCC(CO)NC1C[C@](O)(CO)[C@@H](O)[C@H](O)[C@H]1O (stereo not given in full)"
  observed: 7.78
- molecule: "CCN1CCCC1CNC(=O)c1cc2cc(OC)c(OC)cc2[nH]1 (stereo not given)"
  observed: 18.4
- molecule: "Cc1ccc(C)c(NC(=O)CCC(=O)NNC(=O)c2cccs2)c1"
  observed: 3.73
- molecule: "COc1ccc(C(=O)O/N=C(\\N)Cc2ccc(Cl)cc2Cl)cc1OC"
  observed: 0.628
- molecule: "CC(=O)NS(=O)(=O)c1ccc(N/C(N)=N/c2nc(C)cc(C)n2)cc1"
  observed: 6.28
- molecule: "COC(=O)[C@]1(S(=O)(=O)c2ccccc2)C[C@@H]2ON=C(c3ccc(OC)cc3)[C@@H]2C1"
  observed: -3.07
- molecule: "COc1ccc(CNc2ncncc2-c2ccccc2OC)c(OC)c1"
  observed: -6.24
- molecule: "Cc1ccc2cccc(OCCCOc3ccccc3CO)c2n1"
  observed: 13.6
- molecule: "CCc1[nH]nc(C(=O)N2CCCC(CO)(Cc3ccc(F)cc3F)C2)c1C (stereo not given)"
  observed: 4.7
- molecule: "Cc1cc(C(=O)N/N=C/c2ccc(O)c([N+](=O)[O-])c2)c(C)n1-c1ccc(F)cc1"
  observed: -9.8
- molecule: "CN(c1ccc(O)cc1)c1nc(-c2cccnc2)cs1"
  observed: 0.24
- molecule: "Cc1ccc(S(=O)(=O)c2c[nH]c3ccc(C)cc3c2=O)cc1"
  observed: 18.3
- molecule: "CCOc1ccc2nc(Nc3nc4ccc(NC(C)=O)cc4s3)sc2c1"
  observed: -21.4
- molecule: "COc1ccc(C(=O)COC(=O)Cn2cnc3c2c(=O)n(C)c(=O)n3C)c(OC)c1"
  observed: 2.93
- molecule: "CCCOc1cccc(C(=O)NCCCNC(=O)c2cccnc2)c1"
  observed: 1.7
- molecule: "CC1C(=O)C(C)C(c2ccc(O)cc2)NC1c1ccc(O)cc1 (stereo not given)"
  observed: 4.83
- molecule: "COc1ccc(C(=O)NC2CC2)cc1OC1CCN(C/C=C/c2ccccc2)CC1"
  observed: 8.51
